Attribution: paper PMC4673972

measurement.label: pKd
Worth noting: pKd values are minus log10 of concentrations stated in mol/L.

Input line: API: value(readout= pKd, system= Bcl-2 (B-cell lymphoma 2) (Homo sapiens, UniProt P10415), query= CC(C)(COP(=O)(O)OP(=O)(O)OC[C@H]1O[C@@H](n2cnc3c(N)ncnc32)[C@H](O)[C@@H]1OP(=O)(O)O)[C@@H](O)C(=O)NCCC(=O)NCCS )
Output line: 3.42
